The reported numbers originate from patent US9115149B2.

# MEASUREMENT PROTOCOL: Pharmacokinetic profile in male Swiss albino mice
# CONDITION SUMMARY: mouse, in vivo, intravenous single dose 5 mg/kg body weight
Reported AUC values follow for various compounds
Please reply with the bare figure in ng·h/mL and do not write the unit itself.

The examples below pair each entry with its known result.
COMPOUND STRUCTURE STRING | UNITS LABEL | AUC
CCC1(CC)C(=O)Nc2ncc(/C=C/C(=O)N(C)Cc3oc4ccccc4c3C)cc21 | ng·h/mL | 1220
CN(Cc1cc2ccccc2n1C)C(=O)/C=C/c1cnc2[nH]nc(N(C)C)c2c1 | ng·h/mL | 908
Cc1c(CN(C)C(=O)/C=C/c2cnc3c(c2)C2(CCC2)C(=O)N3)sc2ccccc12 | ng·h/mL | 7320
CCC1(CC)C(=O)Nc2ncc(/C=C/C(=O)N(C)Cc3sc4ccccc4c3C)cc21 | ng·h/mL | 1410
CCn1c(=O)[nH]c2ncc(/C=C/C(=O)N(C)Cc3cc4ccccc4n3C)cc21 | ng·h/mL | 1040
CCC1(CC)C(=O)Nc2ncc(/C=C/C(=O)N(C)Cc3cc4ccccc4n3C)cc21 | ng·h/mL | 1400

// below: AUC requested for another compound
Query: Name the reported AUC value associated with the compound `Cc1c(CN(C)C(=O)/C=C/c2cnc3c(c2)C(C)(C)C(=O)N3)oc2ccccc12`
Response: 10300
